inhibition at 10 µM values, listed per item
experimental-system: DPAP1 (Plasmodium falciparum, UniProt Q8IIJ9)
Sequence (Q8IIJ9 370-599 limits assumed): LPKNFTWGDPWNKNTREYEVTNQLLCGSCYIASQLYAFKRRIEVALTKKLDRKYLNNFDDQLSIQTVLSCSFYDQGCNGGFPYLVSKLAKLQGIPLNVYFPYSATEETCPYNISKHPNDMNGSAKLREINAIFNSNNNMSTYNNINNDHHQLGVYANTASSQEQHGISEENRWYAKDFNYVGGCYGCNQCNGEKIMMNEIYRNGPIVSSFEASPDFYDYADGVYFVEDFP
Sequence (Q8IIJ9 28-209 limits assumed): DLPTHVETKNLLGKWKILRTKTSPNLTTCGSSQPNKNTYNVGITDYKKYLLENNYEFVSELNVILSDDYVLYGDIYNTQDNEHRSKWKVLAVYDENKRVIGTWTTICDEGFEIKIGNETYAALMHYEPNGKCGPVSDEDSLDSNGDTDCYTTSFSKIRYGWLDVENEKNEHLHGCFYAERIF
Sequence (Q8IIJ9 600-700 limits assumed): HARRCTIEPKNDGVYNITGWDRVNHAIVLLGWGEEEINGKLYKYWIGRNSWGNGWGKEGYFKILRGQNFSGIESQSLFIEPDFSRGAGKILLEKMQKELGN
assay-text: biochemical
Assay type: biochemical
reported-conditions: 10 μM compound, parasite lysates, (PR)2Rho, 30 min end-point; read-out: DPAP1 % Inhibition @ 10 uM
readout-name: inhibition at 10 µM

compound	test-value
N#CC1=C2SCN(C3CCCCC3)CN2C(=O)CC1c1ccccc1F (centres unmarked)	38%
COc1cc(C2CC(=O)N3CN(C4CCCCC4)CSC3=C2C#N)cc(OC)c1OC (centres unmarked)	2%
COc1ccc(OC)c(C2CC(=O)N3CN(Cc4ccco4)CSC3=C2C#N)c1 (centres unmarked)	7%
COc1cc(C2CC(=O)N3CN(Cc4ccco4)CSC3=C2C#N)ccc1O (centres unmarked)	18%
COc1ccc2ccccc2c1C1CC(=O)N2CN(C3CCCCC3)CSC2=C1C#N (centres unmarked)	27%
